Target: 5-HT1A receptor (Rattus norvegicus, UniProt P19327)
Construct: Brains were rapidly removed and placed on ice; from tissue; host or cells: Sprague–Dawley rat hippocampus membranes
Sequence (P19327 whole entry): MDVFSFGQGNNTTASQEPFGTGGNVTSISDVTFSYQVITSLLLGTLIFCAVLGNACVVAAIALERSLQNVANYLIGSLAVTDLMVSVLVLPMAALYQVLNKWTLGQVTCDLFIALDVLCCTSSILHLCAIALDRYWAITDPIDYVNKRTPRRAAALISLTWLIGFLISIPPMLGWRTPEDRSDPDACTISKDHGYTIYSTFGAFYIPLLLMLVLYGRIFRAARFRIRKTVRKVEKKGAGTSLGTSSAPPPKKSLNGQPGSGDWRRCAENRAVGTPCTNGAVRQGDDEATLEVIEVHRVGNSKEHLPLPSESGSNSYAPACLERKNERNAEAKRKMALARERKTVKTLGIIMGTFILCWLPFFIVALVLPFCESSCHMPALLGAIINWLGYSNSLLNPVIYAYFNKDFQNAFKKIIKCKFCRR
Test: 5-HT1A receptor activation in the [35S]GTP-γ-S assay (agonist and antagonist mode)
Assay type: biochemical
Settings: result in words
Measure Name: agonist or antagonist properties at the 5-HT1A receptor

# annotated cases, reported agonist or antagonist properties at the 5-HT1A receptor shown
COc1ccccc1N1CCN(CCCCOc2cc3oc(=O)cc(C)c3cc2C(C)=O)CC1 antagonistic properties
CC(=O)c1cc2c(C)cc(=O)oc2cc1OCCCCN1CCN(c2ccc(Br)cc2)CC1 antagonistic properties
CC(=O)c1cc2c(C)cc(=O)oc2cc1OCCCCN1CCN(c2ccccc2Br)CC1 antagonistic properties
CC(=O)c1cc2c(C)cc(=O)oc2cc1OCCCCN1CCN(c2cccc(Br)c2)CC1 agonistic profile

Turning now to a further compound:
Look up agonist or antagonist properties at the 5-HT1A receptor for this compound: `CC(=O)c1cc2c(C)cc(=O)oc2cc1OCCCCN1CCN(c2cnccn2)CC1`
agonistic profile

----------
Molecular target: 5-HT2A receptor (Rattus norvegicus)
Construct: Brains were rapidly removed and placed on ice; from tissue; host or cells: Sprague–Dawley rat frontal cortex membranes
Sequence (P14842 whole entry): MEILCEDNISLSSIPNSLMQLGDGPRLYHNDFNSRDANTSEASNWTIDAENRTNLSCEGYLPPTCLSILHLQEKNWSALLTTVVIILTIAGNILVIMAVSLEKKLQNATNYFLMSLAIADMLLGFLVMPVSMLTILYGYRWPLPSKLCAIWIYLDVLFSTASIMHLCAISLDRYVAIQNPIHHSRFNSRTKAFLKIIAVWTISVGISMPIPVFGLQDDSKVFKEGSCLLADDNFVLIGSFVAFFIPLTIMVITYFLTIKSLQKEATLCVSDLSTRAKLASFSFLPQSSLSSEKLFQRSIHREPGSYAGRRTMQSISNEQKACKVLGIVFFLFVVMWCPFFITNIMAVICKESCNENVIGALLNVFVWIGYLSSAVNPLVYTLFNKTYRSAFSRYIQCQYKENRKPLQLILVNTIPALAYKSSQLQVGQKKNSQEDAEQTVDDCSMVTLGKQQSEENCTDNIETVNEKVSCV
Assay: Competitive 5-HT2A binding assay with [3H]ketanserin, rat frontal cortex membranes
Conditions: 1 nM [3H]ketanserin, 95% CI in brackets, read-out: 5-HT2A Affinity Ki (nM, 95% CI)
Measure Name: Ki (nM)

# annotated cases, reported Ki shown
CC(=O)c1cc2c(C)cc(=O)oc2cc1OCCCCN1CCN(c2ccccc2Cl)CC1 2080
CC(=O)c1cc2c(C)cc(=O)oc2cc1OCCCCN1CCN(c2ccccc2Br)CC1 1020
CC(=O)c1cc2c(C)cc(=O)oc2cc1OCCCCN1CCN(c2cccc(Br)c2)CC1 1160
CC(=O)c1cc2c(C)cc(=O)oc2cc1OCCCCN1CCN(c2ccncc2)CC1 3360
CC(=O)c1cc2c(C)cc(=O)oc2cc1OCCCCN1CCN(c2ccc(Br)cc2)CC1 1350
CC(=O)c1cc2c(C)cc(=O)oc2cc1OCCCCN1CCN(c2ccc([N+](=O)[O-])cc2)CC1 1500

a. CC(=O)c1cc2c(C)cc(=O)oc2cc1OCCCCN1CCOCC1
b. COc1cccc(N2CCN(CCCCOc3cc4oc(=O)cc(C)c4cc3C(C)=O)CC2)c1
Which value of Ki is smaller, the one for a or the one for b ? # answer = label of selected item
b
(b: 1160 nM, a: 6390 nM)

----------
Each entry below carries its reported melting point.

# annotated cases, reported melting point shown
CC(=O)c1cc2c(C)cc(=O)oc2cc1OCCCCN1CCN(c2ccccc2Br)CC1 121 to 122 °C
CC(=O)c1cc2c(C)cc(=O)oc2cc1OCCCCN1CCN(c2cc(C)ccc2C)CC1 130 to 131 °C
CC(=O)c1cc2c(C)cc(=O)oc2cc1OCCCCN1CCN(c2ccccc2F)CC1 112 to 113 °C
CC(=O)c1cc2c(C)cc(=O)oc2cc1OCCCCN1CCN(c2cccc(Cl)c2Cl)CC1 111 to 112 °C
CC(=O)c1cc2c(C)cc(=O)oc2cc1OCCCCN1CCOCC1 115 to 116 °C
CC(=O)c1cc2c(C)cc(=O)oc2cc1OCCCCN1CCN(c2ccc([N+](=O)[O-])cc2)CC1 138 to 139 °C
CC(=O)c1cc2c(C)cc(=O)oc2cc1OCCCCN1CCN(c2cnccn2)CC1 150 to 151 °C
CC(=O)c1cc2c(C)cc(=O)oc2cc1OCCCCN1CCN(c2ccccc2Cl)CC1 132 to 133 °C
CC(=O)c1cc2c(C)cc(=O)oc2cc1OCCCCN1CCN(c2ccccc2C#N)CC1 117 to 118 °C

Turning now to a further compound:
Look up melting point for this compound: `CC(=O)c1cc2c(C)cc(=O)oc2cc1OCCCCN1CCN(c2ccncc2)CC1`
107 to 108 °C
